# protocol summary: antimalarial activity against Dd2 strain (AID 2302);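 further: 0% = DMSO untreated growth and 100% = chloroquine plus artemisinin killed control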
# experimental setup: P. falciparum Dd2 in RBCs, LDH growth readout, 72 h; at 2 µM; hits give high values
// values below are reported growth inhibition

compound	scale unit	growth inhibition
CC(=O)Nc1ccc(CN(C)C2CCN(c3cc(NC(=O)c4cccc(C)c4)ccn3)CC2)cc1	%	13
CCN(CC)CCCC(C)Nc1cc(C=Cc2ccccc2Cl)nc2cc(Cl)ccc12 (stereo unspecified)	%	77
CC1(C)N=C(N)N=C(N)N1OCCc1ccc2ccccc2c1	%	95
CCCCCCN1CCC(NCc2cccc(-n3ccnc3)c2)CC1	%	101
O=C(Nc1cccc(-c2nn3ccccc3c2-c2ccnc(Nc3cccc(C(F)(F)F)c3)n2)c1)c1c(F)cccc1F	%	91
Cc1cc(Nc2ccc3c(c2)CCC3)n2ncnc2n1	%	48
CC(C)(CNCc1cccc(Oc2ccccc2)c1)c1nc(-c2ccc(Cl)c(O)c2)c(-c2ccnc(N)n2)[nH]1	%	99
O=C(C=CC(=O)N1CCCCC1)NCc1ccccc1	%	-3
Cc1cccc(-c2cccc3c(NC(=O)N4CCc5cc6nccc(N7CCN8CCC[C@H]8C7)c6cc54)cccc23)n1	%	68
O=c1cc(NCCCNC2CCc3c(Cl)cc(Cl)cc32)[nH]c2ccccc12 (stereo unspecified)	%	29
NC1CCN(Cc2cccc(-c3ccc(-c4nc5ccccc5[nH]4)cc3)c2)C1 (stereo unspecified)	%	58
Oc1cccc(Nc2nc(NCc3ccco3)c3ccccc3n2)c1	%	74
N#Cc1ccc(NC(=O)Nc2ccc(OC(F)(F)F)cc2)cc1	%	91
CCCCCN=C(N)c1ccc(OCCCCCOc2ccc(C(N)=NCCCCC)cc2)cc1	%	98
COc1ccccc1C(=O)C1CCCN(C(=O)c2ccccc2C(F)(F)F)C1 (stereo unspecified)	%	84
Cc1ccc(F)cc1-c1cc(N2CCCN(C(=O)c3ccc(Br)o3)CC2)ncn1	%	91
CN(C)CCNc1cc(-c2cccnc2)nc(-c2ccncc2)n1	%	98
COc1ccc(-c2cccc(NC(=O)c3ccc(C#N)cc3)c2)cc1CN1CCCN(C)CC1	%	89
Cc1ccccc1CNc1noc(-c2c(F)cccc2Cl)n1	%	90
CN(C)CC(O)C(c1ccccc1)c1cccc(Br)c1 (stereo unspecified)	%	9
Cc1ccc(C)c(S(=O)(=O)NCC2CCN(Cc3ccc(O)cc3)CC2)c1	%	57

---

// values below are reported inhibition
# assayed system: L-lactate dehydrogenase (Plasmodium falciparum (isolate CDC / Honduras)) (UniProt Q27743)
# Sequence (Q27743 whole entry, looked up): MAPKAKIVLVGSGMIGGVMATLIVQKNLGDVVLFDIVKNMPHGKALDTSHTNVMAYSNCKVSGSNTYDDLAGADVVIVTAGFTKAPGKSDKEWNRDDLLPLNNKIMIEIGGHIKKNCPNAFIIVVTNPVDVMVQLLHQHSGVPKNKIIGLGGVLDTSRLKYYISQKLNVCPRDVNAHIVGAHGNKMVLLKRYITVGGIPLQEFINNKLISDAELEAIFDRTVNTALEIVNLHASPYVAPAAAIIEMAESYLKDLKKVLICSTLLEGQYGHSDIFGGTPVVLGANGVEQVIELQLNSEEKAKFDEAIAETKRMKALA
# protocol summary: PfLDH activity inhibition – cell lysate, 3D7 strain, counter-screen for P. falciparum growth inhibition project (AID 2304);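 further: 0% = vehicle and 100% = reference inhibitor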
# experimental setup: P. falciparum 3D7 crude extract, LDH APAD/NBT absorbance; at 2 µM; hits give high values
property: inhibition (%)

molecule	property	reading
COc1ccc2nc3cc(Cl)ccc3c(NCCc3ccccc3)c2c1	inhibition	8
Nc1c2c(nc3ccc(NC(=O)CCCc4ccccc4)cc13)CCCC2	inhibition	-1
NC(=O)c1cc2nc(Nc3ccc(F)cc3)nc(NC3CCC3)c2[nH]1	inhibition	3
COc1cc(C2C(Oc3ccccc3)C(=O)N2Cc2ccc(F)cc2)cc(OC)c1OC (stereo not given)	inhibition	4
CC(C)CNCc1cccc(-c2ccccc2CN(C(=O)NCCc2ccccc2)C2CCN(Cc3ccccc3)CC2)c1	inhibition	-6
Cc1cc(-c2nc3cncc(-c4cccc(CN5CCCC5Cc5cccnc5)c4)c3n2C)nn1C (stereo not given)	inhibition	-1
CCc1cccc2c(C#N)cn(CC(=O)NCCc3ccccc3)c12	inhibition	2
O=C(Nc1cccc(-c2cccc(-c3ccc(F)cc3)n2)c1)c1ccc([N+](=O)[O-])o1	inhibition	4
COc1cccc(Nc2c(C(N)=O)cnc3ccc(-c4ccccc4)cc23)c1	inhibition	-2
COc1ccc(CCNc2nc(NCCc3cnc[nH]3)nc(NCc3cccc4ccccc34)n2)cc1OC	inhibition	3

---

# protocol summary: antimalarial activity against Dd2 strain (AID 2302);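 further: 0% = DMSO untreated growth and 100% = chloroquine plus artemisinin killed control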
# experimental setup: P. falciparum Dd2 in RBCs, LDH growth readout, 72 h; at 2 µM
Active and inactive are the calls of the source.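 The calls were made as follows: active = growth inhibition above 50% at the single 2 µM test dose, taken to imply half-maximal potency below 2 µM; inactive = the rest.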
Outcome codes: active, inactive

compound	group label
CC(C)CNCc1ccc(-c2ccc(CN(CCCN3CCN(C)CC3)C(=O)/C=C/c3ccccc3)cc2)cc1	active
CCOc1ccc(-c2nonc2NC(=O)c2ccccc2OC)cc1OCC	active
COc1cc(CNCCC(C)C)ccc1OCc1cccc(COc2ccc(CNCCC(C)C)cc2OC)c1	inactive
Cc1cccc2[nH]c(-c3cccc(-c4ccc(NC(=O)c5cnc[nH]5)cc4)c3)nc12	inactive
COc1ccc2nccc([C@@H](O)CN3CCC(NC(=O)c4ccc(Cl)c(Cl)c4)CC3)c2c1	active
O=C(N[C@@H](Cc1ccccc1)C(=O)NC1CCCCC1)c1ccc(O)c(-c2ccc(Cl)c(Cl)c2)c1	active
CCc1ccc(NC(=O)N(CCCn2ccnc2)Cc2csc(-c3ccc(CNCc4ccccc4)cc3)n2)cc1	inactive
COc1ccc2nccc([C@@H](O)CN3CCC(NC(=O)c4ccc(CN5CCN(c6cccc(C)c6)CC5C)cc4)CC3)c2c1 (some centres undefined)	active
Cc1c(CNCCCNc2cc(=O)c3ccccc3[nH]2)sc(-c2ccco2)c1Br	inactive

---

# protocol summary: antimalarial activity against Dd2 strain (AID 2302);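 further: 0% = DMSO untreated growth and 100% = chloroquine plus artemisinin killed control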
# experimental setup: P. falciparum Dd2 in RBCs, LDH growth readout, 72 h; at 2 µM; hits give high values
property: growth inhibition (%)

compound	reading
Cc1c(Cl)cccc1S(=O)(=O)Nc1cccc(CCN2CCC(N3CCCCC3)CC2)c1	82
O=C(NC(NC(=S)Nc1ccc([N+](=O)[O-])cc1)C(Cl)(Cl)Cl)c1cccc(Cl)c1 (stereo not given)	100
N#Cc1ccc(NC(=NCc2ccc(Cl)cc2Cl)Nc2cccc(Cl)c2Cl)c(O)c1	75
OCCNc1nc(Nc2ccc(Cl)cc2)nc2ccccc12	99
N/C(=N/C(=NCCCCCCN=C(/N=C(/N)Nc1ccc(Cl)cc1)N1CCOCC1)N1CCOCC1)Nc1ccc(Cl)cc1	91

---

# assayed system: L-lactate dehydrogenase (Plasmodium falciparum (isolate CDC / Honduras)) (UniProt Q27743)
# protocol summary: PfLDH activity inhibition – cell lysate, 3D7 strain, counter-screen for P. falciparum growth inhibition project (AID 2304);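 further: 0% = vehicle and 100% = reference inhibitor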
# experimental setup: P. falciparum 3D7 crude extract, LDH APAD/NBT absorbance; at 2 µM; hits give high values
// values below are reported inhibition

compound	scale unit	inhibition
COc1ccc(Br)cc1/C=C/C(=O)Nc1cccc(C2CCCN(C)C2)c1 (centres undefined)	%	1
N#Cc1ccc(-c2cnc3ccc(NCc4ccc(S(N)(=O)=O)cc4)nn23)cc1	%	5
COC(=O)Cn1c(C2CCN(CC3CCN(C(=O)/C=C/c4ccc(Cl)c(Cl)c4)CC3)CC2)nc2ccccc21	%	-1
c1ccc(CN2CCC(NCc3ccc(-c4cccc(CNC5CCCC5)c4)cc3)CC2)cc1	%	-8
CN(c1ccc(NC(=O)Nc2cc(C(F)(F)F)ccc2F)cc1)c1ccnc(NCCN2CCCC2)n1	%	-2
COCc1cc(C)nc2sc(C(=O)Nc3cc(C(C)(C)C)ccc3O)c(N)c12	%	-2
NC(=O)c1ccc(NC(=O)CN(Cc2ccc(Cl)cc2)S(=O)(=O)c2ccccc2)cc1	%	6
O=C(Nc1cccc(CN2CCCN(CC3CCCCC3)CC2)c1)c1ccc(Cl)c(Cl)c1	%	7
O=C(NCC1CCN(Cc2ccc3c(c2)OCCO3)C1)c1cc(-c2ccccc2F)cs1 (centres undefined)	%	4
CCCCCCOc1ccc(N2C(N)=NC(N)=NC2(C)C)cc1	%	7
Nc1cccc(CNCc2cccc(-c3cccc(-c4nc5ccc(F)cc5[nH]4)c3)c2)c1	%	-4
Cc1nnc2sc(-c3cccc(NC(=O)c4ccc(N5CCCCC5)c([N+](=O)[O-])c4)c3)nn12	%	-3
CCCCC1=CC2C(=O)C(C(=O)OC)=CN=C2C=C1OCc1ccccc1 (centres undefined)	%	2
CCCN(CCC)C(C)CCC(C)Nc1c2ccc(Cl)cc2nc2ccc(OC)cc12 (centres undefined)	%	3
Cc1cc(N[C@@H](Cc2ccccc2)C(=O)Nc2ccccc2)nc(Nc2ccccc2)n1	%	-1
Cc1noc(-c2ccc3c(c2)CCN(CCC2CCC(NC(=O)/C=C/c4ccc(F)cc4)CC2)CC3)n1 (centres undefined)	%	3
OC1CCCN(Cc2cccc(-c3ccc(-c4nc5ccc(F)cc5[nH]4)cc3)c2)C1 (centres undefined)	%	-4
O=C(Nc1ccc(Cn2ncc(N3CCCNCC3)c(Cl)c2=O)cc1)Nc1ccc(C(F)(F)F)cc1	%	4
O=C(CNC(=O)c1ccc(O)cc1)Nc1cccc(-c2cccc(-c3nc4ccc(C(F)(F)F)cc4[nH]3)c2)c1	%	5

---

# protocol summary: human hepatoma cell viability loss – ATP luminescence, cytotoxicity control for P. falciparum antimalarial project, primary screen (AID 2303);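 further: 0% = DMSO wells and 100% = digitonin-killed cells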
# experimental setup: HepG2 viability, 24-48 h, at 10 µM, hits give high values
// values below are reported inhibition
property: inhibition (%)

molecule	scale unit	reading
CC(C)(C)c1ccc(OCCCON2C(N)=NC(N)=NC2(C)C)cc1	%	77
CCCCN(CCCC)CCC(O)C(=Cc1ccc(Cl)cc1Cl)c1ccc(C(F)(F)F)cc1N (stereo not given)	%	-9
Fc1cccc(COc2ccc(Nc3ncnc4ccc(C#C[C@H]5CCCN5)cc34)cc2Cl)c1	%	7
Cc1nc(NCCc2cnc[nH]2)cc(NCc2ccccc2)n1	%	5
COc1ccc2ncc(F)c(CCN3CCC(NCc4cc(OC)c5c(c4)OCCO5)CC3)c2n1	%	-2
